Test: PLD activity (kcat/Km) of lyso-PAF-PLD and site-specific mutants against lyso-PAF
Type: biochemical
Conditions: substrate lyso-PAF 0 to 5 mM, pH 7.5, 37° C.
# Lookup of reported Km keyed by entry

- molecule: "M45D: lyso-PAF-PLD mutant, D substituted for M in the 45th position of SEQ ID NO: 9 (protein) MTTRTTDNPWLDARVLNMAHAGGENEAPANTLYAFKRAVKLGANDLELDVQSTKDDQLVVIHNATVDQTTDGTGKVRDLTFEQVHELDAAYNFIPGRHAVPGEPPESYPLRGVRTGEKKPPPGYQPSDFAIPKLADVLEAFPRTPINIEIKGTSDADIPSFLHNAKLLARLLKKTGRTDFIVTSFNDLAVAKFHLLAPDIPIAPGMAGLAAYFLLGVKPMHGTVALQIPVRYQGLEIATPEFIRRAHADGYAVHVWFSGTAPDDEATYNRIIDSCADGLMPAYPALLERILDERGIERPGRPGVDPCG"
  Km: "34 µM"
- molecule: "M45G: lyso-PAF-PLD mutant, G substituted for M in the 45th position of SEQ ID NO: 9 (protein) MTTRTTDNPWLDARVLNMAHAGGENEAPANTLYAFKRAVKLGANGLELDVQSTKDDQLVVIHNATVDQTTDGTGKVRDLTFEQVHELDAAYNFIPGRHAVPGEPPESYPLRGVRTGEKKPPPGYQPSDFAIPKLADVLEAFPRTPINIEIKGTSDADIPSFLHNAKLLARLLKKTGRTDFIVTSFNDLAVAKFHLLAPDIPIAPGMAGLAAYFLLGVKPMHGTVALQIPVRYQGLEIATPEFIRRAHADGYAVHVWFSGTAPDDEATYNRIIDSCADGLMPAYPALLERILDERGIERPGRPGVDPCG"
  Km: "27 µM"
- molecule: "M45L: lyso-PAF-PLD mutant, L substituted for M in the 45th position of SEQ ID NO: 9 (protein) MTTRTTDNPWLDARVLNMAHAGGENEAPANTLYAFKRAVKLGANLLELDVQSTKDDQLVVIHNATVDQTTDGTGKVRDLTFEQVHELDAAYNFIPGRHAVPGEPPESYPLRGVRTGEKKPPPGYQPSDFAIPKLADVLEAFPRTPINIEIKGTSDADIPSFLHNAKLLARLLKKTGRTDFIVTSFNDLAVAKFHLLAPDIPIAPGMAGLAAYFLLGVKPMHGTVALQIPVRYQGLEIATPEFIRRAHADGYAVHVWFSGTAPDDEATYNRIIDSCADGLMPAYPALLERILDERGIERPGRPGVDPCG"
  Km: "23 µM"

Shifting focus to the molecule that follows.
I have this molecule here, M45A: lyso-PAF-PLD mutant, A substituted for M in the 45th position of SEQ ID NO: 9 (protein) MTTRTTDNPWLDARVLNMAHAGGENEAPANTLYAFKRAVKLGANALELDVQSTKDDQLVVIHNATVDQTTDGTGKVRDLTFEQVHELDAAYNFIPGRHAVPGEPPESYPLRGVRTGEKKPPPGYQPSDFAIPKLADVLEAFPRTPINIEIKGTSDADIPSFLHNAKLLARLLKKTGRTDFIVTSFNDLAVAKFHLLAPDIPIAPGMAGLAAYFLLGVKPMHGTVALQIPVRYQGLEIATPEFIRRAHADGYAVHVWFSGTAPDDEATYNRIIDSCADGLMPAYPALLERILDERGIERPGRPGVDPCG , and I need its recorded Km.
12 µM
